PROTOCOL_TEXT: yeast display, Sf9 membrane polyspecificity reagent, FACS + sequencing; frameworks hold sequencing errors
READOUT_KIND: polyreactivity (PSR sort gate)

{"BIOPOLYMER_SEQUENCE": "QVQLVESGGGLVQAGGSLRLSCAASGFIFKGYAMGWYRQAPGKERELVAAISKGGGNTYYADSVMGRFSISRDNAKNTVYLQMNSLKPEDTAVYYCAAVPTRYRSYTYTYGGYNYWGQGTQVTVSS", "READOUT_KIND": "polyreactivity (PSR sort gate)", "RESULT": "high polyreactivity"}
{"BIOPOLYMER_SEQUENCE": "QGQLVESGGGLVQAGCSLRLSCAASGSTFRRYAMGWDRQAPGKERELVATINWSGGRTYYADSVKGRFTISRDNAKKTGSLQMNRLKPVDTAVYYCAKADYYGYHYYYWGQGTQVTVSS", "READOUT_KIND": "polyreactivity (PSR sort gate)", "RESULT": "high polyreactivity"}
{"BIOPOLYMER_SEQUENCE": "QDQLVESGGGLVQAGGSLRLSCAASGITLFYYAMGWYRQAPGKERELVAVISASGGSTYYADSVKGRFTISRDNAKNTVYLQMNSLKQEDTAVYYCAAVAYWRSSSWYYYWGLGTQVTVSS", "READOUT_KIND": "polyreactivity (PSR sort gate)", "RESULT": "high polyreactivity"}
{"BIOPOLYMER_SEQUENCE": "QVQLVESGVGLVQARGSLRLSCAASGITFRRYAMGWYRQPPGKERELVAAITSSGGSTYYADSVKGRFTIPRDNAKNTVYLQMNSLKPEDTAVYYCAAAFFSQYYLYDYWGQGTQVTVSS", "READOUT_KIND": "polyreactivity (PSR sort gate)", "RESULT": "high polyreactivity"}

----------
PROTOCOL_TEXT: yeast display, Sf9 membrane polyspecificity reagent, FACS + sequencing; frameworks hold sequencing errors
READOUT_KIND: polyreactivity (PSR sort gate)

{"BIOPOLYMER_SEQUENCE": "QVQLVESGGGLVQAGGSLRLSCAASGSIFGYYAMGWSRQAPGKERELVAAISKSGGRTYYADSVKGRFTISRDNAKNTVYLQMNSLKPEDTAVYYCAAVLWYDIYYGGDYWGQGTQVTVSS", "RESULT": "high polyreactivity"}
{"BIOPOLYMER_SEQUENCE": "QVQLVESGGGLVQAGGSLRLSCAASGITLIRYAMGWYRQAPGKERELVAAINSSGGNTYYADSVKGRFTISRDNAKNTVYLQMNSLKPEDTAVYYCAAKYILDIIGSLDYWGQGTQVTVSS", "RESULT": "low polyreactivity"}
{"BIOPOLYMER_SEQUENCE": "QVLLVESGGGLVQAGGSLRLSWAASGSIFTIYAMGWYRKAPGQERELVAAMNRGDGTNYADSVKGRFTISRDKAKNTVYLQMKSLKPEDTPVYYCAAEYYTEYQKWFDYWGQGTQVTLSS", "RESULT": "high polyreactivity"}
{"BIOPOLYMER_SEQUENCE": "QVQLVESGGGLVQAGGSLRLSCAASGFIFYQYAMGWYRQAPGKERELVAAISWGGGSTYYADSVKGRFTISRDNAKNTVYLQMNSLKPEDTAVYYCAATGLGWHSYHEYDYWGQGTQVTVSS", "RESULT": "low polyreactivity"}
{"BIOPOLYMER_SEQUENCE": "QVQLVESGGGLVQAGGSLRLSCASSGFTFPFYAMGWYRQAPGKESELVAAISWSGGSTYYADSVKGRFTISRDNAKNTVYLQMNSLKPEDTAVYYCAAEYISSPLGYDYWGQGTQVTVSS", "RESULT": "high polyreactivity"}

Pending sequence:
Prompt: # input sequence: `QVQLVESGGGLVQAGGSLRLSCAASGLTFYNNAMGWYRQAPGKERELVARISSGGSTYYADSVKGRFTISRDNAKNTVYLQMNSLKPEDTADYYCAAGRGYWWWYGYDYWGQGTQVTVSS` ; wanted: its polyreactivity (PSR sort gate)
Completion: low polyreactivity

----------
PROTOCOL_TEXT: yeast display, Sf9 membrane polyspecificity reagent, FACS + sequencing; frameworks hold sequencing errors
READOUT_KIND: polyreactivity (PSR sort gate)

Please review the following examples before continuing.
{"BIOPOLYMER_SEQUENCE": "QVQLVSGGGLVHSGGSLRLSCAASGITFESNAMGWYRQGPGKEREFVAAISYDGGDTYYADSVKGRFTISRDNAKNTVYLQMNSLKPDDTSVYYCAAETGWTMDYWGQGTQVTVSS", "polyreactivity (PSR sort gate)": "low polyreactivity"}
{"BIOPOLYMER_SEQUENCE": "QVQLVESGGGLVQAGGSLRLSCAASGSIFTWNVKGWYRQAPGKERELVAAISSGGSTNYADSVKGRFTISRDNAKNTVYLQMNSLKPEDTAVYYCATYFRVWYRSYDYWGQGTQVTVSS", "polyreactivity (PSR sort gate)": "high polyreactivity"}
{"BIOPOLYMER_SEQUENCE": "QVQLVESGGGLVQAGGSLRLSCAASGITFNDNAMGWYRQAPGKERELVAAINSGTGTYYADSVKGRFTISRDNAKNTVYLQMNSLKPEDTAVYYCAADSRPYLRDYWGQGTQVTVSS", "polyreactivity (PSR sort gate)": "low polyreactivity"}
{"BIOPOLYMER_SEQUENCE": "QVQLVESGGGLVQAGARLRLSCAASVSTFQSNAMGWSRQAPGKERELVAAIDQSGGSTYYADSLKGRFTISRDNAKNTVYLQMNSLKPEYTAVYYCAARTSGYWFSYGSWGQGTQVTVSS", "polyreactivity (PSR sort gate)": "high polyreactivity"}

Pending sequence:
Prompt: # input sequence: `QVQLVESGGGLVQAGGSLRLSCAASGRFFKSYAMGWYRQAPGKERELVAAISRSDDTTYYADSVKGRFTISRDNAKNTVYLQMNSLKPEDTAVYYCAADTWRDGDDYWGQGTQVTVSS` ; wanted: its polyreactivity (PSR sort gate)
Completion: low polyreactivity

----------
PROTOCOL_TEXT: yeast display, Sf9 membrane polyspecificity reagent, FACS + sequencing; frameworks hold sequencing errors
READOUT_KIND: polyreactivity (PSR sort gate)

Please review the following examples before continuing.
{"BIOPOLYMER_SEQUENCE": "QVQLVESGGGLVQAGGSLRLSCAASGRIFRTYAMGWYRPAPGKERELVAAISGSGGRTYYADSVKGRFTISRDNAKNTVYLQMNSLKPEDTAVYYCANYVSIVRYGSTTNYDYWGQGTQVTVSS", "polyreactivity (PSR sort gate)": "high polyreactivity"}
{"BIOPOLYMER_SEQUENCE": "QVQLVESGGGLVQAGGSLRLSCAASGSTFYLYAMGWYRQAPGKERELVASITSGDGSTYYADSVKGRFTISRDNAKNTVYLQMNSLKPEDTAVYYCNAVLEGWFYQYDYWGQGTQVTVSS", "polyreactivity (PSR sort gate)": "low polyreactivity"}
{"BIOPOLYMER_SEQUENCE": "QVQLVESGGGLVQAGGSLRLSCASSGSTFVPNTLGWYRQAPGKERELVAAISRSGGSTYYADSVKGRFTISRDNAKNTVYLQMNSLKPEDTAVYYCAARRFGYQGFAYGYWGQGTQVTVSS", "polyreactivity (PSR sort gate)": "high polyreactivity"}
{"BIOPOLYMER_SEQUENCE": "QVQLVESGGGLVQAGGSLRLSCAASGSTFYLYDMGWYRQAPGKEREMVAAISWSSGSTYYADSVKGRFTISRDNAKNTVYLQMNSLKPEETAVYYCAAGPSDTEYWLFDYWGQGTQVTVSS", "polyreactivity (PSR sort gate)": "high polyreactivity"}
{"BIOPOLYMER_SEQUENCE": "QVQLVESGGGLVQAGGSLRLTCAASGFIFRSYAMGWYRQAPGKERELVAVISRRGVNTHYADSVKGRFTISRDNAKNTVYLQMNSLKPEDTAVYYCAKGLTALGDYWGQGTQVTVSS", "polyreactivity (PSR sort gate)": "high polyreactivity"}
{"BIOPOLYMER_SEQUENCE": "QVQLVESGGGLVQAGGSLRLSCAASGFTFTYYAMGWYRQAPAKERELVAAISSSGGRTYYADSVKGRFTISRDNAKNTVYLQMNSLKPEDTAVYYCAARSVSATPDFHYWGQGTQVTVSS", "polyreactivity (PSR sort gate)": "high polyreactivity"}
{"BIOPOLYMER_SEQUENCE": "QVQLVESGGGLVQAGGRLRLTCAASARTIVLNPMGWYRQAPGKERELVAAISSGGSTNYADSVKGRFTISRDNAKNTVYLQMNSLNPEDTAVYYCAGQDVNLYSAYYYWGQGTQVTVSS", "polyreactivity (PSR sort gate)": "low polyreactivity"}
{"BIOPOLYMER_SEQUENCE": "QLQLVESGGGLVQAGGSLRLSCAASGSTFPLYAMGWYRQSPGKERELVASITTGGGNTYYADSVKGRFTISRDNAKNTVYLKMNSLKPEDTAVDYCAKPYHIGLSGRRTYDYWGQGTQVTVSS", "polyreactivity (PSR sort gate)": "high polyreactivity"}

Prompt: # input sequence: `QVQLVESGGGLVQAGGSLRLSCAASGFTFDTNAMGWYRPAPGKERELVAAISRIGGRTYADSVKGRFTISRDNAKNTVYLQMNSLKPEDTAVYYCAADTTWYPYGYDSWGQGTQVTVSS` ; wanted: its polyreactivity (PSR sort gate)
Completion: low polyreactivity

Prompt: # input sequence: `QVQLVESVVGLVQAGGSLLISCAAYGLTFKGYAMVWYRQAPGKERELVAAITWDTGSTYYADSVKGRFSISRDNAKNTVYLQMNSLKPEDTAVYYCAAVGSTTTGVRRRGYWGHGTQVTVSS` ; wanted: its polyreactivity (PSR sort gate)
Completion: high polyreactivity
